Assay: CREB reporter modulators under forskolin, primary screen, cell-based, PC12, CRE-LacZ reporter, forskolin-stimulated (AID 1146);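 also: PC12 cells with 6xCRE LacZ reporter stimulated by forskolin 10 µM; beta-galactosidase reporter signal reflecting CREB driven transcription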
Details: luminescence, 4.5 h, higher = more signal, called active from +8 up or from −8 down
Active and inactive are the calls of the source.

compound	z-score
CCCC[C@@H]1C[C@H]1[C@@H](NC(=O)c1ccccc1)c1ccccc1C(F)(F)F	1.17 (inactive)
COC(=O)Cn1c(C(=O)N2CCCC2)cc2c1C[C@H]1CN(C(=O)c3ccccc3)[C@@](Cc3ccc(OC)cc3)(C(=O)OC)[C@@H]21	1.59 (inactive)
COc1ccc(CCNC(=O)[C@@]2(c3ccc([N+](=O)[O-])cc3)CC(=O)N(C(C)C)[C@@H]2c2ccc(CO)cc2)cc1	-1.25 (inactive)
O=C1C2C=CC(C(O)Cc3ccccc3)N(Nc3ccc([N+](=O)[O-])cc3)C2C(=O)N1c1ccccc1 (stereo not drawn)	-0.0492 (inactive)
CO[C@@H]1COC(=O)[C@H](C)NC(=O)CC=C[C@@H](C)[C@H](NS(=O)(=O)c2ccc(C)cc2)COC(=O)CC=C[C@@H]1C	-0.445 (inactive)
C=CC[C@]1(C(=O)NCC(O)CO)N=C(c2ccc(OCCCO)cc2)O[C@H]1c1ccccc1 (stereo partly drawn)	-0.804 (inactive)
O=C1O[C@H](c2ccccc2)[C@H](c2ccccc2)N2[C@H]1[C@@H](C(=O)NC[C@H](O)c1ccccc1)[C@]1(C(=O)Nc3ccc(C#CC4(O)CCCCCC4)cc31)[C@H]2c1ccc(OCCO)cc1	-0.581 (inactive)
Cc1ccc(S(=O)(=O)c2cc3oc2CC[C@@H](CO)NC(=O)N(C)Cc2cn(nn2)C[C@H](Cc2ccccc2)NC3=O)cc1	-0.58 (inactive)
